- TEST DESCRIPTION: Cmax in BALB/C mouse at 10 mg/kg, po or 2 mg/kg, iv by LC-MS/MS method
- Type: ADME, organism-based
- CONDITION LABEL: BALB/C, in vivo
PROPERTY NAME: Cmax (ng/mL)
Please respond with the number in ng/mL and leave the unit unwritten.

1) Nc1ccccc1NC(=O)/C=C/c1ccc([C@H]2CN(CCO)C[C@@H]2C(=O)Nc2ccc(Cl)cc2)cc1 (racemic); 957
2) CN1C[C@H](C(=O)Nc2ccc(Cl)cc2)[C@@H](c2ccc(/C=C/C(=O)Nc3ccccc3N)cc2F)C1 (racemic); 828
3) CN1C[C@@H](C(=O)Nc2ccc(Cl)cc2)[C@H](c2ccc(/C=C/C(=O)Nc3ccccc3N)cc2)C1; 450
4) CN1C[C@H](C(=O)Nc2ccc(F)c(F)c2)[C@@H](c2ccc(/C=C/C(=O)Nc3ccccc3N)cc2)C1 (racemic); 262
5) CC(C)(O)CN1C[C@H](C(=O)Nc2ccc(Cl)cc2)[C@@H](c2ccc(/C=C/C(=O)Nc3ccccc3N)cc2)C1 (racemic); 1100
6) CC(C)N1C[C@H](C(=O)Nc2ccc(Cl)cc2)[C@@H](c2ccc(/C=C/C(=O)Nc3ccccc3N)cc2)C1 (racemic); 331
7) CC(C)(C)N1C[C@H](C(=O)Nc2ccc(Cl)cc2)[C@@H](c2ccc(/C=C/C(=O)Nc3ccccc3N)cc2)C1 (racemic); 113
8) CC(C)(CO)N1C[C@H](C(=O)Nc2ccc(Cl)cc2)[C@@H](c2ccc(/C=C/C(=O)Nc3ccccc3N)cc2)C1 (racemic); 337

Value of Cmax reported for the molecule Nc1ccccc1NC(=O)/C=C/c1ccc([C@H]2CN(C3CCOCC3)C[C@@H]2C(=O)Nc2ccc(Cl)cc2)cc1 (racemic) is 315

###

- TEST DESCRIPTION: Solubility in 50 mM phosphate buffer at pH 6.5 by HPLC method
- Format: physicochemical
PROPERTY NAME: solubility (µg/mL)
Dear colleague, please return just the value in µg/mL, with no unit written.

Examples from the recorded data:
1. CN(C)[C@H]1CCN(C(C(=O)Nc2ccc(C(F)(F)F)cc2)c2ccc(/C=C/C(=O)Nc3ccccc3N)cc2)C1 (stereo not given in full); 610
2. Nc1ccccc1NC(=O)/C=C/c1ccc(C(C(=O)Nc2ccc(Br)cc2)N2CC[C@H](O)C2)cc1 (stereo not given in full); 5
3. Nc1ccccc1NC(=O)/C=C/c1ccc(C(NCCN2CCOCC2)C(=O)Nc2ccc(C(F)(F)F)cc2)cc1 (racemic); 32
4. Nc1ccccc1NC(=O)/C=C/c1ccc(C(NCCO)C(=O)Nc2ccc(C(F)(F)F)cc2)cc1 (racemic); 5

Measured solubility, CN1C[C@H](C(=O)Nc2ccc(Cl)cc2)[C@@H](c2ccc(/C=C/C(=O)Nc3ccccc3N)cc2)C1 : 136

###

- TEST DESCRIPTION: Tmax in BALB/C mouse at 10 mg/kg, po or 2 mg/kg, iv by LC-MS/MS method
- Assay type: ADME, organism-based
- CONDITION LABEL: BALB/C, in vivo
PROPERTY NAME: Tmax (h)
Just the number please, in h, no unit attached.

1. CN1C[C@H](C(=O)Nc2ccc(Cl)cc2)[C@@H](c2ccc(/C=C/C(=O)Nc3ccccc3N)cc2F)C1 (racemic); 2
2. CC(C)(C)N1C[C@H](C(=O)Nc2ccc(Cl)cc2)[C@@H](c2ccc(/C=C/C(=O)Nc3ccccc3N)cc2)C1 (racemic); 2
3. CC(C)N1C[C@H](C(=O)Nc2ccc(Cl)cc2)[C@@H](c2ccc(/C=C/C(=O)Nc3ccccc3N)cc2)C1 (racemic); 2
4. Nc1ccccc1NC(=O)/C=C/c1ccc([C@H]2CN(C3CCOCC3)C[C@@H]2C(=O)Nc2ccc(Cl)cc2)cc1 (racemic); 0.17

Per the record, CC(C)(O)CN1C[C@H](C(=O)Nc2ccc(Cl)cc2)[C@@H](c2ccc(/C=C/C(=O)Nc3ccccc3N)cc2)C1 (racemic) has Tmax of 1
